The measured values listed here are drawn from ChEMBL document CHEMBL4627246.

MEASUREMENT_NOTES: Metabolic stability in human liver microsomes assessed as half life at 0.2 mg/ml incubated for 60 mins by UPLC/MS-MS analysis
Assay type: ADME, Microsome
REPORTED_ENDPOINT: half-life (min)
Numbers only; they are read as min.

Enquiry: Any idea what its half-life is? The compound is O=C(NCc1ccc(Cl)cc1Cl)[C@@H]1CCC(=O)N1c1ccsc1
Return: 2.5

Enquiry: Likewise for CN1C(=O)CC[C@H]1C(=O)NCc1ccc(Cl)cc1Cl ?
Return: 619

Enquiry: Another compound to check: O=C(NCc1ccc(Cl)cc1Cl)[C@@H]1CCC(=O)N1c1ccco1
Return: 5.2

Enquiry: Ok, now O=C(NCc1ccc(Cl)cc1Cl)[C@@H]1CCC(=O)N1c1ccoc1
Return: 2.9

Enquiry: Param item: O=C(NCc1ccc(Cl)cc1Cl)[C@@H]1COC(=O)N1c1cccs1
Return: 1.4

Further cases:
Enquiry: Which measured half-life value corresponds to O=C(NCc1cccc(C(F)(F)F)c1Cl)[C@@H]1CCC(=O)N1c1cccs1 ?
Return: 3.8

Enquiry: Now the compound CN1C(=O)CC[C@H]1C(=O)NCc1cccc(C(F)(F)F)c1Cl
Return: 800

Enquiry: And what about the compound O=C(NCc1ccc(Cl)cc1Cl)[C@@H]1CCC(=O)N1c1cccs1 ?
Return: 1.5

Enquiry: What do you have for O=C(NCc1ccc(Cl)cc1Cl)[C@@H]1CCC(=O)N1c1cscn1 ?
Return: 4.8

Enquiry: Do the same for O=C(NCc1ccc(Cl)cc1Cl)[C@@H]1CCC(=O)N1c1nccs1 please
Return: 7.5

* * *

Test system: T47D
MEASUREMENT_NOTES: Cytotoxicity against human T47D cells assessed as effect on cell growth at 10 uM incubated for 48 hrs by sulforhodamine B assay
Type: cell-based
REPORTED_ENDPOINT: Activity

// below: answered molecules
Enquiry: Quick one: Activity for O=C(NCc1ccc(Cl)cc1Cl)c1ccccn1 ?
Return: Non-Toxic

Enquiry: // same read-out, input: O=C(NCC1CCCCC1)[C@@H]1CCC(=O)N1c1ccccc1
Return: Non-Toxic

Enquiry: Please give the result for C[n+]1ccccc1C(=O)NCc1ccc(Cl)cc1Cl.[I-] too.
Return: Non-Toxic

Enquiry: Now consider CN(C)/C=C1\C[C@H]2C(=O)N(/C(=C/N(C)C)c3ccncc3)C(N(C)C)N2C1=O (stereo partly specified) and answer again.
Return: Non-Toxic

Enquiry: Request: O=C(NCc1ccc(Cl)cc1Cl)[C@@H]1CCC(=O)N1C(c1ccccc1)c1ccccc1
Return: Non-Toxic

Enquiry: Try O=C(NCc1ccc(Cl)cc1Cl)[C@@H]1CCC(=O)N1c1cccs1 next.
Return: Non-Toxic

Enquiry: Now the same for O=C(NCc1ccc(Cl)cc1Cl)[C@@H]1CCC(=O)N1c1ccsc1
Return: Non-Toxic

Enquiry: Then COc1ccc(N2C(=O)CC[C@H]2C(=O)NCc2ccc(Cl)cc2Cl)cc1 ?
Return: Non-Toxic

Enquiry: Now try O=C(NCCc1ccc(Cl)cc1Cl)[C@@H]1CCC(=O)N1c1ccccc1 .
Return: Non-Toxic

Enquiry: Next record, please: COc1ccccc1CN1C(=O)[C@@H]2C/C(=C\N(C)C)C(=O)N2C1N(C)C (stereo partly specified)
Return: Non-Toxic

---
Enquiry: For O=C(NCc1ccc(Cl)cc1Cl)[C@@H]1CCC(=O)N1c1ccc(Cl)cc1 , what is its reported Activity?
Return: Non-Toxic

Enquiry: Please give the result for CCCCCCN1C(=O)[C@@H]2CCC(=O)N2C1N(C)C (stereo partly specified) too.
Return: Non-Toxic

Enquiry: Now try CN(C)/C=C1\C[C@H]2C(=O)N(Cc3ccccc3Cl)C(N(C)C)N2C1=O (stereo partly specified) .
Return: Non-Toxic

Enquiry: Would you mind doing COc1ccc(CNC(=O)[C@@H]2CCC(=O)N2Cc2ccc(Cl)cc2Cl)c(OC)c1 as well?
Return: Non-Toxic

Enquiry: Entry to check: O=C(NCc1ccc(Cl)cc1Cl)[C@@H]1CCC(=O)N1c1ccccc1
Return: Non-Toxic

Enquiry: Next: CN(C)/C=C1\C[C@H]2C(=O)N(Cc3ccc(Cl)cc3Cl)C(N(C)C)N2C1=O (stereo partly specified)
Return: Non-Toxic
